These measurements were taken from PubChem BioAssay (EPA / NIEHS).

molecular target: human Thyroid Receptor alpha (THRa1), THRA (gene 7067) (UniProt P10827); assay: ATG_THRa1_TRANS: Attagene TRANS-FACTORIAL HepG2 Assay for human Thyroid Receptor alpha (THRa1) (AID 2283014)
Sequence (P10827 whole entry, looked up): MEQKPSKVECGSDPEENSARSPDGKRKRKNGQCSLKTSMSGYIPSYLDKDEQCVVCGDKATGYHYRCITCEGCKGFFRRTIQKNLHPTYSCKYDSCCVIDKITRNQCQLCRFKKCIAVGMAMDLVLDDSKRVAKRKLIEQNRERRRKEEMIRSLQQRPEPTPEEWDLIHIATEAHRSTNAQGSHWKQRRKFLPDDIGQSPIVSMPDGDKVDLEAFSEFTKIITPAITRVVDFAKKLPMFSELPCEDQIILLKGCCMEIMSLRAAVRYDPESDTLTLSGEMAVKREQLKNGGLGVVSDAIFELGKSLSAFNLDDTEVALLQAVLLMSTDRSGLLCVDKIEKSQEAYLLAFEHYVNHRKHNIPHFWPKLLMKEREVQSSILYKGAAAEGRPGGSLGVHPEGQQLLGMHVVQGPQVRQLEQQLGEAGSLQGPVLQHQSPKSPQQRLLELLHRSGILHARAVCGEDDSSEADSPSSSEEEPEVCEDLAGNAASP
Results filed as inconclusive are left out. Activity calls are given as the source filed them. The calls were made as follows: active = hit-call score of the fitted dose curve at least 0.9, where 1 is the maximum; inconclusive = response in the unintended direction; inactive = score below 0.9.
Response enum: active, inactive

Some solved entries appear below for comparison.
>>> class("COc1nc(C)nc(NC(=O)NS(=O)(=O)c2ccccc2CCC(F)(F)F)n1")
"inactive"
>>> class("Fc1ccc(Oc2ccnc3cc(Cl)cc(Cl)c23)cc1")
"inactive"
>>> class("CCNc1nc(Cl)nc(NC(C)C)n1")
"inactive"
>>> class("N#Cc1nn(-c2c(Cl)cc(C(F)(F)F)cc2Cl)c(N)c1S(=O)C(F)(F)F (stereo not given)")
"active"
>>> class("CCOc1cc(Oc2ccc(C(F)(F)F)cc2Cl)ccc1[N+](=O)[O-]")
"inactive"
>>> class("CCCCNC(=O)OCC#CI")
"inactive"
>>> class("O=C(Nc1ccccc1)Nc1ccnc(Cl)c1")
"inactive"
>>> class("C#CCOS(=O)OC1CCCCC1Oc1ccc(C(C)(C)C)cc1 (stereo not given)")
"inactive"

Here's the next entry for you.
Exam item: Dear all, I need the recorded test outcome for COc1ccc(C(c2ccc(OC)cc2)C(Cl)(Cl)Cl)cc1 , thank you.
Marked response: inactive
